All values here come from paper PMC4336329.

Listed here: items and their measured hERG current change (%, negative = inhibition) at 10uM.
biological target: human ether-à-go-go-related gene (hERG) potassium channel (human); assay: primary screen, population patch clamp on CHO cells stably expressing hERG; higher = less effect of the substance;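 also: peak tail current of the secondary pulse compared with the same well before compound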
Sequence (Q12809 whole entry, looked up): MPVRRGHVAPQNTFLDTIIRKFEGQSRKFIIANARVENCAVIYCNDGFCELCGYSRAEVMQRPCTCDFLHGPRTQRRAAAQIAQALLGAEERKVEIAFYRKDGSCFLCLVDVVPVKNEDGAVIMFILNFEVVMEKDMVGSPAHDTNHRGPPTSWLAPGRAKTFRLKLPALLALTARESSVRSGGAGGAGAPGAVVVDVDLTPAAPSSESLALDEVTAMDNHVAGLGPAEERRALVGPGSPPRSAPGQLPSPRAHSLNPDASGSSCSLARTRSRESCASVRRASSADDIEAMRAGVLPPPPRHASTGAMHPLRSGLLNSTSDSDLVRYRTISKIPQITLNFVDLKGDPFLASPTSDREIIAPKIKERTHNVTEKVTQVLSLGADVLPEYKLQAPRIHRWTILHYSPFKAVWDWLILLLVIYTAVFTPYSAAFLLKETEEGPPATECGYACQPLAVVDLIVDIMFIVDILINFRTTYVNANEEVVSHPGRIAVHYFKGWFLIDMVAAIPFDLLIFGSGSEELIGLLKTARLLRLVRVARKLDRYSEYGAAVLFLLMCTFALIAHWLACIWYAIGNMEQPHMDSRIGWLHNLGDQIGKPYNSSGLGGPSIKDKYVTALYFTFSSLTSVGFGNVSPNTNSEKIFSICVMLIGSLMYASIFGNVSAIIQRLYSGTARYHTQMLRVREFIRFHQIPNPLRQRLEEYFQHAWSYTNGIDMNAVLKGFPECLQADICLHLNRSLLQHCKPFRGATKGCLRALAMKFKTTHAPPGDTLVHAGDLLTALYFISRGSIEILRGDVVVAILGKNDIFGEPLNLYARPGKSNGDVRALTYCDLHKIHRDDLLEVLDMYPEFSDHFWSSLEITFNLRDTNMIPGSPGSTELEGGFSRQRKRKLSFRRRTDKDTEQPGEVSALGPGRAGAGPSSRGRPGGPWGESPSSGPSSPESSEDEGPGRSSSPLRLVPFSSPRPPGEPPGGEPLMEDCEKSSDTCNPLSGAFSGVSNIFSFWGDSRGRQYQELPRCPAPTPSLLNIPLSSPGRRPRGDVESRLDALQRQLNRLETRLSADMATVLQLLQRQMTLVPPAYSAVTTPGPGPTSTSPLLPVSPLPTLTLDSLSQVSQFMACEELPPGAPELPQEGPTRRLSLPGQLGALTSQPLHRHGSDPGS
The campaign covered roughly 310,000 compounds. About 14,000 (4.5%) showed an effect of 50% or more. The effect is printed as a negative number. This is one part of a sample in which strong results are shown more often than they occur.
Assay Endpoint: hERG current change (%, negative = inhibition) at 10uM (%)

[[record]]
compound = "COc1ccc(OCC(=O)Nc2ccc(S(=O)(=O)N3CCCCC3)cc2)cc1"
uom = "%"
result = -20.2

[[record]]
compound = "CCN(CC)c1ccc(C(=O)OCC(=O)Nc2cccc(S(=O)(=O)NC3=NCCCCC3)c2)cc1"
uom = "%"
result = 7.02

[[record]]
compound = "COc1ccc(CCNC(=O)c2cccs2)cc1"
uom = "%"
result = 10.9

[[record]]
compound = "CCCCOc1ccc(-n2nc(C)cc2C)nn1"
uom = "%"
result = -16.3

[[record]]
compound = "CCOc1ccc(C(=O)NN2C(=O)C3C4C=CC(O4)C3C2=O)cc1 (stereo not drawn)"
uom = "%"
result = -14

[[record]]
compound = "CCn1cc(C(=O)N[C@@H](CCSC)C(=O)NCCO)c(=O)c2cc3c(cc21)OCO3"
uom = "%"
result = 20.6

[[record]]
compound = "Cn1c(SCCc2ccc([N+](=O)[O-])cc2)nccc1=O"
uom = "%"
result = -59.9

[[record]]
compound = "Cc1ccc(S(=O)(=O)N2[C@@H](c3cccc(Cl)c3)C(C(=O)O)=CC[C@H]2c2cccc(Cl)c2)cc1"
uom = "%"
result = 3.05

[[record]]
compound = "O.O=C(NCc1nc2ccccc2[nH]1)c1ccc(Cl)c(S(=O)(=O)N2CCCC2)c1"
uom = "%"
result = -14.3

[[record]]
compound = "CCOc1ccc2nc(SCC(=O)c3ccc(O)cc3O)sc2c1"
uom = "%"
result = 14.5

[[record]]
compound = "Cc1nn(-c2ccc(Cl)cc2)c(N)c1C(O)(CSc1nccn1C)C(F)(F)F (stereo not drawn)"
uom = "%"
result = -22.9

[[record]]
compound = "Fc1ccc(SCCc2ccncc2)cc1"
uom = "%"
result = -29.9

[[record]]
compound = "C[C@H]1CN=C2N(CCNC(=O)CCC3CCCCC3)[C@H](Cc3ccc(O)cc3)CN21"
uom = "%"
result = 9.65

[[record]]
compound = "O=[N+]([O-])c1ccc(SCCc2cc[nH+]cc2)cc1.[Cl-]"
uom = "%"
result = -53.7

[[record]]
compound = "Cc1ccc(F)cc1NC(=O)CSCc1c(C)noc1C"
uom = "%"
result = -3.15

[[record]]
compound = "C[C@@H]1CN=C2N(CCNC(=O)CCC3CCCCC3)[C@H](Cc3ccc(O)cc3)CN21"
uom = "%"
result = -0.311

[[record]]
compound = "COC(=O)c1cnc(SCc2ccc([N+](=O)[O-])cc2)n1C"
uom = "%"
result = -32

[[record]]
compound = "COC(=O)c1ccc(-n2cc(-c3ccc(OC)cc3)[nH]c2=S)cc1"
uom = "%"
result = 33.1

[[record]]
compound = "CCn1c(COc2ccccc2C)nnc1SCC(=O)O"
uom = "%"
result = 16.3

[[record]]
compound = "O=[N+]([O-])c1ccc(SCCc2ccccn2)cc1"
uom = "%"
result = -44.3

[[record]]
compound = "FC(F)(F)c1nnc2c(Sc3ccccc3)nc3ccc(Cl)cc3n12"
uom = "%"
result = 12.2

